Parameter pKi: see the listing below.
experimental_system: Glutamate NMDA receptor
test_details: Displacement of [3H]MK801 from NMDA receptor in rat brain neuronal membrane
Assay type: cell membranes
particulars: read-out: Ki
Conceptually, pKi converts a concentration in mol/L into minus its log10.

{"columns": ["smiles", "measured_number"],
 "data": [
  ["COC(=O)[C@H](N)c1ccccc1", 2.86]
]}

Input: Give pKi for the following molecule: N[C@@H](CC1CCCCC1)C1CCCCC1
Output: 3.57

Input: Give pKi for the following molecule: C[C@@H](N)Cc1ccccc1
Output: 3.20

Input: Give pKi for the following molecule: c1ccc(C[C@H](c2ccccc2)N2CCCCC2)cc1
Output: 5.28

Input: Give pKi for the following molecule: N[C@@H](c1ccccc1)[C@@H](N)c1ccccc1
Output: 4.29

====

Parameter Ki: see the listing below.
experimental_system: Glutamate NMDA receptor
test_details: Displacement of [3H]MK801 from NMDA receptor in rat brain neuronal membrane
Type: cell membranes
particulars: read-out: Ki
Answer format: numeric, µM implied, no suffix.

In the examples that follow, each entry is paired with its recorded Ki.
{"columns": ["compound", "measured_number"],
 "data": [
  ["NCCc1ccccc1 [PHENETHYLAMINE]", 753],
  ["C[C@H](N)Cc1ccccc1 [DEXTROAMPHETAMINE]", 300],
  ["N[C@H](Cc1ccccn1)c1ccccc1", 84],
  ["N[C@@H]1C[C@H]1c1ccccc1.N[C@H]1C[C@@H]1c1ccccc1 [TRANYLCYPROMINE]", 544],
  ["c1ccc(C[C@@H](c2ccccc2)N2CCCCC2)cc1", 0.12],
  ["NCC(c1ccccc1)c1ccccc1", 145]
]}

Input: Identify measured Ki obtained with Glutamate NMDA receptor for C[C@@](N)(Cc1ccccc1)c1ccccc1 .
Output: 8.08

Input: Identify measured Ki obtained with Glutamate NMDA receptor for C[C@](N)(Cc1ccccc1)c1ccccc1 .
Output: 0.79

Input: Identify measured Ki obtained with Glutamate NMDA receptor for N[C@H](c1ccccc1)[C@@H](O)c1ccccc1 .
Output: 15.7

====

experimental_system: Glutamate NMDA receptor
test_details: Displacement of [3H]MK801 from NMDA receptor in rat brain neuronal membrane
Assay type: cell membranes
particulars: read-out: Ki
pKi: −log10 of the molar value.
Where pKi equals or exceeds 4, the correct label is label 1; where it does not, the label is label 0.

Input: Does pKi meet or surpass 4 for COc1ccc2c(c1)[C@]13CCCC[C@@H]1[C@H](C2)NCC3 ?
Output: label 1

Input: Does pKi meet or surpass 4 for N[C@@]1(c2ccccc2Cl)CCCCC1=O ?
Output: label 1

Input: Does pKi meet or surpass 4 for CN[C@]1(c2ccccc2Cl)CCCCC1=O ?
Output: label 1

====

Parameter Ki: see the listing below.
experimental_system: Glutamate NMDA receptor
test_details: Displacement of [3H]MK801 from NMDA receptor in rat brain neuronal membrane
Assay type: cell membranes
particulars: read-out: Ki
Answer format: numeric, µM implied, no suffix.

{"columns": ["compound", "measured_number"],
 "data": [
  ["COC(=O)[C@@H](N)c1ccccc1", 1980],
  ["N[C@]1(c2ccccc2Cl)CCCCC1=O", 4.18],
  ["N[C@@H](Cc1ccccn1)c1ccccc1", 14],
  ["N[C@H](Cc1ccccc1)c1ccccc1", 25.1]
]}

Input: Give Ki for the following compound: N[C@H]1C[C@@H]1c1ccccc1 [(+)-TRANYLCYPROMINE]
Output: 269

Input: Give Ki for the following compound: N[C@@H](Cc1ccccc1)c1ccccc1
Output: 0.7

Input: Give Ki for the following compound: C[C@@H](N)c1ccccc1
Output: 659

====

experimental_system: Glutamate NMDA receptor
test_details: Displacement of [3H]MK801 from NMDA receptor in rat brain neuronal membrane
Format: cell membranes
particulars: read-out: Ki
Parameter pKi: see the listing below.
Conceptually, pKi converts a concentration in mol/L into minus its log10.

In the examples that follow, each entry is paired with its recorded pKi.
{"columns": ["molecule", "pKi"],
 "data": [
  ["C[C@H](N)c1ccccc1", 3.21],
  ["N[C@@H](c1ccccc1)[C@H](O)c1ccccc1", 3.85],
  ["N[C@H](CC1CCCCC1)C1CCCCC1", 3.86],
  ["c1ccc(C2(N3CCCCC3)CCCCC2)cc1 [PHENCYCLIDINE]", 6.57]
]}

Next:
Input: Identify measured pKi obtained with Glutamate NMDA receptor for N[C@H](c1ccccc1)[C@H](N)c1ccccc1 .
Output: 5.39

====

experimental_system: Glutamate NMDA receptor
test_details: Displacement of [3H]MK801 from NMDA receptor in rat brain neuronal membrane
Assay type: cell membranes
particulars: read-out: Ki
Parameter Ki: see the listing below.

In the examples that follow, each entry is paired with its recorded Ki.
{"columns": ["molecule", "Ki"],
 "data": [
  ["NC(c1ccccc1)c1ccccc1 [AMINODIPHENYLMETHANE]", "64 µM"],
  ["CN[C@@]1(c2ccccc2Cl)CCCCC1=O", "5.68 µM"]
]}

Next:
Input: Give Ki for the following molecule: NCc1ccccc1 [BENZYLAMINE]
Output: 1060 µM
